Each recorded value in this set is attributed to patent US20210388087A1.

Target: T1, Human CD3eg linker (human)
T1 construct: single-chain construct; also called recombinant human CD3
T1 chain: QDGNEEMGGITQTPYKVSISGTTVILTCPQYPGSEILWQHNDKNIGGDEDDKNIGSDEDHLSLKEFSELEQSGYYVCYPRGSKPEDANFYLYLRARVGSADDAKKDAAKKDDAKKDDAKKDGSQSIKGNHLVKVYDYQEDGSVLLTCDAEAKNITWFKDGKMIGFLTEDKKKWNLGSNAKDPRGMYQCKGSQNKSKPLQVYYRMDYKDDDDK
Assay: SPR, vs unmutated H183/L072
Hi! Just check whether fold change of affinity is below 1 fold. Below gives yes (1), equal or above gives no (0).

Binder	Label value
dBBDu183H F100gD/dBBDu072L (antibody, name in Kabat numbering, V domains shown) VH: QVQLVESGGGLVQPGRSLRLSCAASGFTFSNAWMHWVRQAPGKGLEWVAQIKDKGNAYAAYYAPSVKGRFTISRDDSKNSIYLQMNSLKTEDTAVYYCHYVHYASASTVLPADGVDAWGQGTTVTVSS VL: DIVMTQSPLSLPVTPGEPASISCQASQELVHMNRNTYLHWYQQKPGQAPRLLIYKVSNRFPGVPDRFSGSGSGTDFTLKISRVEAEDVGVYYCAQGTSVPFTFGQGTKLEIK	yes (1)
dBBDu183H P61V/dBBDu072L (antibody, name in Kabat numbering, V domains shown) VH: QVQLVESGGGLVQPGRSLRLSCAASGFTFSNAWMHWVRQAPGKGLEWVAQIKDKGNAYAAYYAVSVKGRFTISRDDSKNSIYLQMNSLKTEDTAVYYCHYVHYASASTVLPAFGVDAWGQGTTVTVSS VL: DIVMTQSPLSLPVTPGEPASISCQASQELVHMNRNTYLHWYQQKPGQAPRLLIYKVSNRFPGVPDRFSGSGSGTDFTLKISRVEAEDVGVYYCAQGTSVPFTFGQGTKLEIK	no (0)
dBBDu183H F100gR/dBBDu072L (antibody, name in Kabat numbering, V domains shown) VH: QVQLVESGGGLVQPGRSLRLSCAASGFTFSNAWMHWVRQAPGKGLEWVAQIKDKGNAYAAYYAPSVKGRFTISRDDSKNSIYLQMNSLKTEDTAVYYCHYVHYASASTVLPARGVDAWGQGTTVTVSS VL: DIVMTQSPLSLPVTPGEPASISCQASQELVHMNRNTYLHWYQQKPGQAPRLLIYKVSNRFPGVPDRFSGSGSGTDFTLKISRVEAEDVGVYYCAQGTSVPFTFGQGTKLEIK	no (0)
dBBDu183H A100fQ/dBBDu072L (antibody, name in Kabat numbering, V domains shown) VH: QVQLVESGGGLVQPGRSLRLSCAASGFTFSNAWMHWVRQAPGKGLEWVAQIKDKGNAYAAYYAPSVKGRFTISRDDSKNSIYLQMNSLKTEDTAVYYCHYVHYASASTVLPQFGVDAWGQGTTVTVSS VL: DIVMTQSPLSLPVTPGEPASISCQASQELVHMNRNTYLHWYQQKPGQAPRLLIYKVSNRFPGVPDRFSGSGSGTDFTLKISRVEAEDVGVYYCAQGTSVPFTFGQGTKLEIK	no (0)
dBBDu183H Y94H/dBBDu072L (antibody, name in Kabat numbering, V domains shown) VH: QVQLVESGGGLVQPGRSLRLSCAASGFTFSNAWMHWVRQAPGKGLEWVAQIKDKGNAYAAYYAPSVKGRFTISRDDSKNSIYLQMNSLKTEDTAVYYCHHVHYASASTVLPAFGVDAWGQGTTVTVSS VL: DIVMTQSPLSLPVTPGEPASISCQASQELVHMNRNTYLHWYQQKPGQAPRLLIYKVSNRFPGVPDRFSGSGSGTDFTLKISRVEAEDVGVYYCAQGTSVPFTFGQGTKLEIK	yes (1)
dBBDu183H A100fS/dBBDu072L (antibody, name in Kabat numbering, V domains shown) VH: QVQLVESGGGLVQPGRSLRLSCAASGFTFSNAWMHWVRQAPGKGLEWVAQIKDKGNAYAAYYAPSVKGRFTISRDDSKNSIYLQMNSLKTEDTAVYYCHYVHYASASTVLPSFGVDAWGQGTTVTVSS VL: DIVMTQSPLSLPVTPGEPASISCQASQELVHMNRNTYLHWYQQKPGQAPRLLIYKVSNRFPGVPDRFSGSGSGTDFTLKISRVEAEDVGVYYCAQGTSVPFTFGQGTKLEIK	no (0)
dBBDu183H Y97G/dBBDu072L (antibody, name in Kabat numbering, V domains shown) VH: QVQLVESGGGLVQPGRSLRLSCAASGFTFSNAWMHWVRQAPGKGLEWVAQIKDKGNAYAAYYAPSVKGRFTISRDDSKNSIYLQMNSLKTEDTAVYYCHYVHGASASTVLPAFGVDAWGQGTTVTVSS VL: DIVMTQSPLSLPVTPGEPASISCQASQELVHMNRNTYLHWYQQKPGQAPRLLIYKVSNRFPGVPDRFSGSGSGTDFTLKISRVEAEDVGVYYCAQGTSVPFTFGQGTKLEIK	yes (1)

Is fold change of affinity of dBBDu183H A98E/dBBDu072L (antibody, name in Kabat numbering, V domains shown) VH: QVQLVESGGGLVQPGRSLRLSCAASGFTFSNAWMHWVRQAPGKGLEWVAQIKDKGNAYAAYYAPSVKGRFTISRDDSKNSIYLQMNSLKTEDTAVYYCHYVHYESASTVLPAFGVDAWGQGTTVTVSS VL: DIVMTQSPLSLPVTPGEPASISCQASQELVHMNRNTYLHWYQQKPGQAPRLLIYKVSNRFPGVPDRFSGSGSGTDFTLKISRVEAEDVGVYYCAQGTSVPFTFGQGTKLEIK strictly below 1 fold?
yes (1)
